Here the recorded TGI is given for each entry.
test system: EKVX NSCLC; assay: NCI tumour cell line growth inhibition, 48 h

Some molecules with recorded TGI:
{"Molecule": "COc1ccc(-c2cc(-c3ccccc3)c3c(n2)-c2ccccc2NC(=O)C3)cc1", "TGI": "> 100 µM"}
{"Molecule": "CC1(c2ccccc2)CC12C(=O)NC(=O)NC2=O (stereo unspecified)", "TGI": "> 100 µM"}

Name the recorded TGI for OC12c3ccccc3C1CCCCCCCCCC21OCCCO1 (stereo unspecified) .
> 100 µM

Name the recorded TGI for "O=C(Nc1ncc([N+](=O)[O-])s1)c1cccc([N+](=O)[O-])c1" .
> 100 µM

Name the recorded TGI for CC(C)SC1SCC2C(=O)N(C)C3(CC3C)C(=O)OCC(NC(=O)c3nc4ccccc4cc3O)C(=O)NC(C)C(=O)N(C)C1C(=O)N(C)C1(CC1C)C(=O)OCC(NC(=O)c1nc3ccccc3cc1O)C(=O)NC(C)C(=O)N2C (stereo unspecified) .
0.0759 µM

###

system: HT29 colon; test: NCI tumour cell line growth inhibition, 48 h
Experimental readout: log10 TGI (log10 of the value in µM)
Remember, log10 of TGI, in µM.

{"Molecule": "Clc1ccc(Nc2ccnc(NCCNc3ccnc4cc(Cl)ccc34)n2)cc1", "log10 TGI": 0.32}
{"Molecule": "COc1ccc(C[C@H]2NC[C@H](OC(C)=O)[C@H]2OC(C)=O)cc1", "log10 TGI": 0.02}
{"Molecule": "CC1=NN(c2cccc(Cl)c2)C(=N/c2nc3ccccc3s2)/C1=C\\c1ccccc1O", "log10 TGI": 1.99}
{"Molecule": "COC(=O)/C=C1\\SC(=Nc2ccc(C(F)(F)F)cc2)N(CCc2c[nH]c3ccccc23)C1=O", "log10 TGI": 0.66}
{"Molecule": "COc1ccc(-n2c(-c3ccc(NC(=O)CCCl)cc3)nnc2-c2cc(OC)c(OC)c(OC)c2)cc1", "log10 TGI": 1.05}

Now, please, on to the next molecule.
Name the recorded log10 TGI for [N-]=[N+]=NC1(c2ccccc2)C(=O)c2cccc3c4ccccc4n(c23)C1=O (stereo not given) .
1.71

###

tested on: MDA-MB-231 breast; assay: NCI tumour cell line growth inhibition, 48 h
Experimental readout: TGI (µM)
Return type: number; implicit unit µM.

{"Chemical string": "O=C(CSc1nc2ccc([N+](=O)[O-])cc2[nH]1)Nc1cccc(C(F)(F)F)c1", "Value": 6.65}
{"Chemical string": "CCCCCCCCCCCCOCCCCCCCCC/C=C/c1ccc2c(c1)OCCOCCOCCOCCO2", "Value": 37.7}

Now, please, on to the next compound.
Name the recorded TGI for "O=C(Oc1cccc(Nc2ncnc3ccccc23)c1)c1ccccc1Cl" .
36

###

tested on: SNB-19 CNS; test: NCI tumour cell line growth inhibition, 48 h
Experimental readout: TGI

{"Molecule": "O=P(Oc1ccccc1)(Oc1ccccc1)C(O)c1ccccc1 (stereo not drawn)", "TGI": "> 100 µM"}
{"Molecule": "Brc1nc2c3ccccc3ncn2c1Br", "TGI": "> 100 µM"}
{"Molecule": "CN(C)Cc1cc(N=Nc2c(Cl)cccc2Cl)ccc1O", "TGI": "> 100 µM"}
{"Molecule": "O=c1oc2ccccc2c(Cl)c1Cl", "TGI": "22.7 µM"}
{"Molecule": "Clc1ccc(N2COOC3(OOC2)C2CC4CC(C2)CC3C4)cc1", "TGI": "> 100 µM"}
{"Molecule": "CC(C)(C)C(=O)Nc1ccccc1Br", "TGI": "> 100 µM"}
{"Molecule": "CCN(CC)c1ccc2[nH]c3c(C(N)=O)cc(=O)c(=O)c=3oc2c1", "TGI": "24.5 µM"}
{"Molecule": "CC(=O)N1c2ccccc2C2=NN=C(N(C)C)SC21 (stereo not drawn)", "TGI": "23.5 µM"}
{"Molecule": "CCOC(=O)C12C3CCC1C2C(=O)C3 (stereo not drawn)", "TGI": "> 100 µM"}
{"Molecule": "CC(C)OP(=O)(OC(C)C)c1nn(-c2ccc([N+](=O)[O-])cc2)c(=N)s1", "TGI": "> 100 µM"}

Name the recorded TGI for "COc1ccc(-n2c(-c3ccc(NC(=O)CCCl)cc3)nnc2-c2cc(OC)c(OC)c(OC)c2)cc1" .
> 14.3 µM

Name the recorded TGI for "CCOC(=O)Nn1cnnc1Cc1ccccc1" .
> 100 µM

Name the recorded TGI for Cc1cccc2c1CC(C1OC(=O)c3c(C)cccc31)C2=O (stereo not drawn) .
> 100 µM

###

tested on: MOLT-4 leukemia; test: NCI tumour cell line growth inhibition, 48 h
Here the recorded TGI is given for each entry.

Some compounds with recorded TGI:
{"Compound": "CC(=O)N1c2ccccc2C2=NN=C(N(C)C)SC21 (stereo not drawn)", "TGI": "> 100 µM"}
{"Compound": "COc1cccc(-c2nc(-c3ccc(NS(=O)(=O)c4ccccc4)cc3)[nH]c2-c2ccnc(Br)c2)c1", "TGI": "> 100 µM"}
{"Compound": "N.N.NCCCCN.O=C([O-])CC(=O)[O-].O=C([O-])CC(=O)[O-].[Pt+4].[Pt+4]", "TGI": "> 100 µM"}
{"Compound": "OCc1ccc(N(Cc2ccc(F)cc2)C2CCC2)cc1Cl", "TGI": "36.7 µM"}
{"Compound": "CC(C)SC1SCC2C(=O)N(C)C3(CC3C)C(=O)OCC(NC(=O)c3nc4ccccc4cc3O)C(=O)NC(C)C(=O)N(C)C1C(=O)N(C)C1(CC1C)C(=O)OCC(NC(=O)c1nc3ccccc3cc1O)C(=O)NC(C)C(=O)N2C (stereo not drawn)", "TGI": "< 0.0001 µM"}

Form entry - test system: MOLT-4 leukemia; read-out: TGI; compound: COCC1N=C(c2ccc(OC)c(OCc3ccccc3)c2OC)O[C@H]1c1ccccc1 (stereo partly drawn)
23.3 µM

Form entry - test system: MOLT-4 leukemia; read-out: TGI; compound: "CN(C)c1ccc(/C=C(\NC(=O)c2ccccc2)c2nc3ccccc3c(=O)o2)cc1"
> 100 µM

Form entry - test system: MOLT-4 leukemia; read-out: TGI; compound: "COc1ccc(/C=C\c2cc(OC)c(OC)c(OC)c2)cc1NC(=O)[C@@H](N)CO"
> 100 µM

###

Here the recorded TGI is given for each entry.
system: SF-539 CNS; assay: NCI tumour cell line growth inhibition, 48 h

{"Compound": "Nc1ccc(CCN2CCN(c3cccc(C(F)(F)F)c3)CC2)cc1", "Target": "SF-539 CNS", "TGI": "> 100 µM"}
{"Compound": "COc1cccc(/C=C\\c2cc(OC)c(OC)c(OC)c2)c1", "Target": "SF-539 CNS", "TGI": "> 100 µM"}

Form entry - test system: SF-539 CNS; read-out: TGI; compound: "CCOC(=O)CCN1C(=O)c2ccc(NC(=O)C(=O)O)cc2S1(=O)=O"
> 100 µM

Form entry - test system: SF-539 CNS; read-out: TGI; compound: "COc1ccc(-c2cc(-c3ccccc3)c3c(n2)-c2ccccc2NC(=O)C3)cc1"
> 100 µM

Form entry - test system: SF-539 CNS; read-out: TGI; compound: CC(C)(C)[Si](C)(C)OC1[C@@H](O[Si](C)(C)C(C)(C)C)[C@@H](CNC(=O)NC(=O)NC(=O)CI)O[C@H]1n1cnc2c(NC(=O)Nc3ccccc3)ncnc21 (stereo not given in full)
1.16 µM

###

system: OVCAR-4 ovarian; test: NCI tumour cell line growth inhibition, 48 h
Experimental readout: TGI

Some compounds with recorded TGI:
{"Compound": "COC1CCC2C(=O)CCCC2O1 (stereo not drawn)", "TGI": "> 100 µM"}
{"Compound": "N#Cc1c2ccccc2c2nnc3cc(C(F)(F)F)ccc3n12", "TGI": "> 100 µM"}
{"Compound": "O=NN(CCCl)C(=O)NCc1ccc[n+]([O-])c1", "TGI": "> 100 µM"}

Name the recorded TGI for "O=S(=O)(O)c1ccc(N=Nc2c(O)ccc3ccccc23)cc1" .
> 100 µM

###

tested on: U251 CNS; experiment: NCI tumour cell line growth inhibition, 48 h
Where a SMILES comes first, the peptide text is derived from it. The star is where a group is joined. Boc = CC(C)(C)OC(=O)*
Experimental readout: TGI

Some compounds with recorded TGI:
{"Compound": "COC(=O)/C=C/COCC1C2CCC(=O)C21 (stereo not drawn)", "Experimental readout": "TGI", "Value": "> 100 µM"}
{"Compound": "Cn1cc(-c2nc(-c3c[nH]c4ncccc34)cs2)c2cc(Cl)ccc21", "Experimental readout": "TGI", "Value": "30.8 µM"}
{"Compound": "NCCCn1c2c(c3ccccc3c1=O)C(=O)c1cc3c(cc1-2)OCO3", "Experimental readout": "TGI", "Value": "1.52 µM"}
{"Compound": "NS(=O)(=O)c1ccc(NC(=S)/N=C/c2c(O)c3ccccc3[nH]c2=O)cc1", "Experimental readout": "TGI", "Value": "> 100 µM"}
{"Compound": "COC(=O)C(Cc1c[nH]c2ccccc12)NC(=O)C(Cc1c[nH]c2ccccc12)NC(=O)C(Cc1c[nH]c2ccccc12)NC(=O)C(Cc1c[nH]c2ccccc12)NC(=O)C(Cc1c[nH]c2ccccc12)NC(=O)OC(C)(C)C (stereo not drawn) (Boc-WWWWW-OMe; configuration not given here)", "Experimental readout": "TGI", "Value": "> 100 µM"}
{"Compound": "COc1cc(/C=C2\\CC(C)CC3C2=NN(c2ccccc2)C3c2cc(OC)c(OC)c(OC)c2)cc(OC)c1OC (stereo not drawn)", "Experimental readout": "TGI", "Value": "39 µM"}
{"Compound": "CCOC(=O)CCN1C(=O)c2ccc(NC(=O)C(=O)O)cc2S1(=O)=O", "Experimental readout": "TGI", "Value": "> 100 µM"}

Now, please, on to the next compound.
Name the recorded TGI for "CC(C)/C(Cl)=N/OC(NC(=O)Nc1ccc(Cl)c(Cl)c1)(C(F)(F)F)C(F)(F)F" .
33.2 µM
